Test: gradient 5% acetonitrile 3 min, to 50% in 2 min, to 85% in 15 min, held 3 min, 100 µL/min
Conditions: column: Zorbax Extend-C18 2.1 x 50 mm; eluents: water / acetonitrile, 0.1% formic acid
MEASUREMENT KIND: RP-LC retention time (s)

Recorded RP-LC retention time, per entry:
# MOLECULE, OBSERVED
data = [
    ("O=C(Nc1ccc(N2CCOCC2)cc1)C1(CCO)CCN(c2ncccn2)C1 (stereo not given)", 549),
    ("Cc1ccc(C)c(NC(=O)CCc2nc(N3CCOCC3)c3c(C)noc3n2)c1", 763),
    ("CC(=O)Nc1ccc(S(=O)(=O)N2CCCC2c2nc(-c3ccc(F)cc3)no2)cc1Cl (stereo not given)", 990),
]

A = Cc1ccc(-c2noc(CN3N=NC4C(=O)N(c5ccc(F)cc5)C(=O)C43)n2)cc1 (stereo not given)
B = O=C(NCc1nc2ccccc2[nH]1)c1coc(NC(=O)c2cccs2)n1
Would you let me know which has the greater RP-LC retention time value, A or B ? Your choice should be expressed through its label. A
(A: 1020 s, B: 556 s)

----------
Assay: gradient 5% acetonitrile 3 min, to 50% in 2 min, to 85% in 15 min, held 3 min, 100 µL/min
Conditions: column: Zorbax Extend-C18 2.1 x 50 mm; eluents: water / acetonitrile, 0.1% formic acid
MEASUREMENT KIND: RP-LC retention time (s)

Completed entries (count: 5):
# COMPOUND, RP-LC retention time [s]
measured = [
    ("Cn1cccc1C(=O)N1CC(c2nc(CCOCC3CCCC3)no2)C1", 934),
    ("O=c1c2cnn(Cc3ccccc3F)c2ncn1Cc1cccc(C(F)(F)F)c1", 928),
    ("Cc1ccc(-c2nnc(-c3nc(N4CCCCCC4)c4ccccc4n3)o2)cc1", 750),
    ("O=C(c1cncc(Br)c1)N1CCN(C(=O)c2cc(-c3ccncc3)n[nH]2)CC1", 578),
    ("CCc1cccc(N2C=NS(=O)(=O)c3cccnc32)c1", 836),
]

P = Cc1ccc(NC(=O)c2nc(C)oc2C)c(F)c1
Q = Cc1nn(-c2nc(-c3ccc(Cl)cc3)cs2)c(C)c1CC(=O)Nc1cccc(C(F)(F)F)c1
R = CCn1nc(C)c(CCNC(=O)c2ccc3c(c2)NC(=O)C2CCCCN32)c1C (centres undefined)
Provide the items ranked by increasing RP-LC retention time. Lab note: final answer is the ordered label list. R, P, Q

A = CCN(c1ccccc1)S(=O)(=O)c1ccc(C(=O)Nc2cc(C)nn2C(C)C)cc1
B = O=C(NCc1ccccn1)C1CCCN(C(=O)NCc2cccs2)C1 (centres undefined)
I would appreciate it if you could say which entry, A or B , has the lower RP-LC retention time value. # answer = label of selected item B
(B: 550 s, A: 858 s)

P = Cc1ccc2c(c1)c(C)c(C)n2CC(O)Cn1nc(C)cc1C (centres undefined)
Q = O=C(OCC(O)COC(=O)c1cccnc1)c1cccnc1
Kindly identify which of P and Q has the larger recorded RP-LC retention time value. // output: label of the selected item P

P = Cc1nc2cc(NC(=O)COc3ccccc3)ccc2s1
Q = Cc1ccsc1C(=O)Nc1cnc(-c2ccc(Cl)cc2)nc1
Please let me know which one, P or Q , has a lower measured RP-LC retention time value. Use the label to indicate which entry you chose. P

----------
Assay: gradient 5% acetonitrile 3 min, to 50% in 2 min, to 85% in 15 min, held 3 min, 100 µL/min
Conditions: column: Zorbax Extend-C18 2.1 x 50 mm; eluents: water / acetonitrile, 0.1% formic acid
MEASUREMENT KIND: RP-LC retention time (s)

# COMPOUND, OBSERVED
records = [
    ("CSc1ccccc1NC(=O)c1ccc(COc2ccc(C)cc2)o1", 1120),
    ("CO[C@H]1C(=O)N(C(C)C)[C@H]1C1CCN(C(=O)Cn2ccnc2)CC1", 562),
    ("COc1ccc(CSc2nccc3c2ccn3CC(=O)NCc2ccc(OC)c(OC)c2)cc1", 681),
    ("O=C(NOCCc1ccccc1)Nc1ccc([N+](=O)[O-])cc1", 843),
    ("COc1cccc(C(=O)N2CCC3(CC2)NC(=O)c2cc(C)ccc2N3C)c1", 752),
    ("Cc1ccc(C(=O)N2CCCC(COc3ccc(C(=O)N4CCOCC4)cc3)C2)cc1 (centres undefined)", 793),
]

A = O=c1c2cc(-c3ccc(F)cc3)nn2ccn1Cc1noc(CN2CCc3ccccc32)n1
B = O=C(CN1CCN(C(=O)c2sc3ncccc3c2-n2cccc2)CC1)N1CCCC1
I would appreciate it if you could say which entry, A or B , has the lower RP-LC retention time value. Kindly state the label of the option you pick. B

----------
Assay: gradient 5% acetonitrile 3 min, to 50% in 2 min, to 85% in 15 min, held 3 min, 100 µL/min
Settings: column: Zorbax Extend-C18 2.1 x 50 mm; eluents: water / acetonitrile, 0.1% formic acid
MEASUREMENT KIND: RP-LC retention time (s)

# COMPOUND, RP-LC retention time (s)
data = [
    ("CC(=O)OC1CCN(C(=O)NC(C)(C)C)CC1", 696),
]

I = O=C(Cn1c(=O)c2cccn2c2ccc(F)cc21)NCCN1CCOCC1
II = COC(=O)c1ccc(C2CC(=O)NC3=C2C(=O)CC(c2ccccc2Cl)C3)cc1 (stereo not given)
Among I and II , which shows a numerically higher RP-LC retention time result? Mark your answer with the label of the selected entry. II
(II: 881 s, I: 592 s)

1 = Cc1cccc(CNc2nnc(-c3nnc(C)o3)c3ccccc23)c1
2 = Cc1cccc(OCCCC(=O)Nc2nc(-c3ccc(Br)cc3)cs2)c1
3 = COc1cc(NC(=O)Nc2ccc3nc(N4CCN(C)CC4)cc(C)c3c2)cc(OC)c1OC
Rank order required: RP-LC retention time, descending. Return the labels ranked in the requested order, please. 2, 1, 3
(2: 1260 s, 1: 831 s, 3: 574 s)

a = O=C1COc2ccc(-c3csc(NC(=O)c4ccc(Br)cc4)n3)cc2N1
b = COc1ccc(N2CCN(c3cc(C(=O)O)c4cc(NC(C)=O)ccc4n3)CC2)cc1
# query: argmin of RP-LC retention time over a and b Choose, then provide that item's label. b

----------
Assay: gradient 5% acetonitrile 3 min, to 50% in 2 min, to 85% in 15 min, held 3 min, 100 µL/min
Details: column: Zorbax Extend-C18 2.1 x 50 mm; eluents: water / acetonitrile, 0.1% formic acid
MEASUREMENT KIND: RP-LC retention time (s)

# COMPOUND, UNIT OF MEASUREMENT, RP-LC retention time
rows = [
    ("COC(=O)C[C@@](O)(CCC(C)(C)O)C(=O)O[C@@H]1C(OC)=C[C@]23CCCN2CCc2cc4c(cc2[C@@H]13)OCO4", "s", 612),
    ("O=C(c1ccc(N2C[C@H]3C[C@H](C2)[C@H]2CCCC(=O)N2C3)nc1)N1CCN(c2ncccn2)CC1", "s", 567),
    ("Cc1cc(-c2ccc(S(=O)(=O)N3CCC(C(=O)NCC4CC4)CC3)o2)n[nH]1", "s", 702),
]

I = CCC(C(=O)N1CCN(CC)CC1)n1c2ccccc2c2cnn(C)c(=O)c21 (centres undefined)
II = Cc1ccc(N2C(=O)CN(S(C)(=O)=O)CC2(C)C(=O)NC2CCCCCCC2)cc1Cl (centres undefined)
Which value of RP-LC retention time is smaller, the one for I or the one for II ? # answer = label of selected item I
(I: 619 s, II: 980 s)

I = O=C(Cn1ccnc1-c1ccnc(N2CCOCC2)c1)Nc1cccc(Br)c1
II = CC1CCN(S(=O)(=O)c2ccc(-c3nnc(C(C)C)o3)o2)CC1
Select one. Lower RP-LC retention time: I or II Give the label of your selection. I

----------
Assay: gradient 5% acetonitrile 3 min, to 50% in 2 min, to 85% in 15 min, held 3 min, 100 µL/min
Details: column: Zorbax Extend-C18 2.1 x 50 mm; eluents: water / acetonitrile, 0.1% formic acid
MEASUREMENT KIND: RP-LC retention time (s)

// solved cases for RP-LC retention time follow
# COMPOUND, OBSERVED
records = [
    ("CC(NC(=O)c1cnn2c(-c3ccc4c(c3)OCO4)ccnc12)c1ccc(F)cc1 (stereo not given)", 1000),
    ("COc1ccc(NC(=O)c2c(O)c3cccnc3n(-c3ccccc3)c2=O)cc1OC", 800),
    ("Cc1nc(-c2ccc3c(c2)n(CC(=O)NC(C)(C)C)c(=O)n3C(C)C)no1", 810),
    ("CCOc1ccc(-c2noc(Cn3c(=O)n(-c4ccccc4F)c(=O)c4sccc43)n2)cc1OC", 945),
    ("Cc1ccc(CNS(=O)(=O)c2cc(-c3[nH]ncc3C(=O)N3CCCC3)oc2C)cc1C", 768),
]

1 = CCC(=O)NCc1nc(-c2ccccc2Cl)no1
2 = O=S(=O)(c1cc(-c2noc(C3CCCC3)n2)cs1)N1CCCCC1
For 1 and 2 , which recorded RP-LC retention time is lower? Indicate your choice by writing its label. 1
